Source: patent EP4635958A1

# test: Plasma stability test, mouse plasma;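 also: test compound quantified by LC-MS using positive-mode electrospray ionization and MRM scanning, with an internal standard added in acetonitrile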
# Format: in vitro ADME
# condition summary: Mouse plasma, 37°C, 30 min
measured quantity: Remaining rate (%) 30 min
Give bare numbers, in %.

The following compounds have reported results that may help.
compound	display unit	Remaining rate (%) 30 min
[2H]C([2H])(Oc1nc2c3c(nc(-c4cc(O)cc5ccc(F)c(C#C)c45)c(F)c3n1)O[C@@H](C)[C@@H]1[C@@H]3CC[C@H](CN21)N3)C1(C([2H])([2H])N2CCC(=CF)CC2)CC1 [Example 291]	%	82.58
C#Cc1c(F)ccc2cc(O)cc(-c3nc4c5c(nc(OCC6(CN7CCC(=C(F)F)CC7)CC6)nc5c3F)N3C[C@H]5CC[C@H](N5)[C@H]3[C@H](C)O4)c12 [Example 19-1]	%	98.20
C#Cc1c(F)ccc2cc(O)cc(-c3nc4c5c(nc(OCC6(CN7CCC(=C(F)F)CC7)CC6)nc5c3F)N3C[C@H]5CC[C@H](N5)[C@H]3CO4)c12 [Example 1-1]	%	96.27

State the recorded Remaining rate (%) 30 min for every item in the following list.
1. C#Cc1c(F)ccc2cc(O)cc(-c3nc4c5c(nc(OCC6(CN7CCC(=CF)CC7)CC6)nc5c3F)N3C[C@H]5CC[C@H](N5)[C@H]3[C@H](C)O4)c12 [Example 129]
2. [2H]C([2H])([2H])[C@@H]1Oc2nc(-c3cc(O)cc4ccc(F)c(C#C)c34)c(F)c3nc(OCC4(CN5CCC(=CF)CC5)CC4)nc(c23)N2C[C@H]3CC[C@H](N3)[C@@H]12 [Example 164]

Completion:
[103.47, 95.56]

---

Please go through the items and note down their IC50.
# Test system: GP2D
# test: Inhibition of proliferation of KRAS G12D mutant tumor cell line GP2D (CellTiter-Glo)
# condition summary: Homo sapiens, GP2d, 72 h, read-out: GP2D IC50
Answers are plain numbers, in nM.

The following compounds have reported results that may help.
compound	display unit	IC50
C#Cc1c(F)ccc2cc(O)cc(-c3nc4c5c(nc(OCC6(CN7CCC(=C(F)F)C7)CC6)nc5c3F)N3CC5CCC(N5)C3CO4)c12 (stereo not shown)	nM	1.5
C#Cc1c(F)ccc2cc(O)cc(-c3nc4c5c(nc(OCC6(CN7CCC(=C(F)F)C[C@@H]7C)CC6)nc5c3F)N3C[C@H]5CC[C@H](N5)[C@H]3[C@H](C)O4)c12	nM	0.51
C#Cc1c(F)ccc2cc(O)cc(-c3nc4c5c(nc(OCC6(CN7CCC(=C(F)F)CC7)CC6)nc5c3F)N3C[C@H]5CC[C@H](N5)[C@H]3[C@H](CC)O4)c12	nM	0.98

Prompt: Please supply the value of reported IC50 for the item [2H]C([2H])([2H])C1Oc2nc(-c3cc(O)cc4ccc(F)c(C#C)c34)c(F)c3nc(OCC4(CN5CCC(=CF)CC5C)CC4)nc(c23)N2CC3CCC(N3)C12 (stereo not shown)
Completion: 0.32

---

# test: Plasma stability test, dog plasma;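 also: parent compound left in dog plasma quantified by LC-MS with positive electrospray ionization, selected reaction monitoring and an internal standard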
# Format: in vitro ADME
# condition summary: Dog plasma, 37°C, 60 min
measured quantity: Remaining rate (%) 60 min
One number for each entry, in %.

The following compounds have reported results that may help.
entry smiles	display unit	Remaining rate (%) 60 min
[2H]C([2H])([2H])[C@@H]1Oc2nc(-c3cc(O)cc4ccc(F)c(C#C)c34)c(F)c3nc(OCC4(CN5CCC(=CF)CC5)CC4)nc(c23)N2C[C@H]3CC[C@H](N3)[C@@H]12	%	96.81
[2H]C([2H])(Oc1nc2c3c(nc(-c4cc(O)cc5ccc(F)c(C#C)c45)c(F)c3n1)O[C@@H](C)[C@@H]1[C@@H]3CC[C@H](CN21)N3)C1(C([2H])([2H])N2CCC(=CF)CC2)CC1	%	103.00
C#Cc1c(F)ccc2cc(O)cc(-c3nc4c5c(nc(OCC6(CN7CCC(=C(F)F)CC7)CC6)nc5c3F)N3C[C@H]5CC[C@H](N5)[C@H]3CO4)c12	%	104.40
C#Cc1c(F)ccc2cc(O)cc(-c3nc4c5c(nc(OCC6(CN7CCC(=C(F)F)CC7)CC6)nc5c3F)N3C[C@H]5CC[C@H](N5)[C@H]3[C@H](C)O4)c12	%	101.84

Prompt: Please supply the value of reported Remaining rate (%) 60 min for the item C#Cc1c(F)ccc2cc(O)cc(-c3nc4c5c(nc(OCC6(CN7CCC(=CF)CC7)CC6)nc5c3F)N3C[C@H]5CC[C@H](N5)[C@H]3[C@H](C)O4)c12
Completion: 97.42
